Attribution: PubChem BioAssay AID2060894

tested on: K12877-001-R-J1-PDC complex spheroid viability; assay: Anticancer human tumor K12877-001-R-J1-PDC patient-derived lung adenocarcinoma cell line growth inhibition [RAS]; conditions: curve of first compound; second compound 0.0316 µM
pIC50: −log10 of the molar value.
Readout label: pIC50

Record excerpt, results attached:
INSERT INTO assay_data (compound, tested_system, readout_label, numeric_value) VALUES
  ('CC1(O)CCCC1n1c(=O)c(C(F)F)cc2cnc(NC3CCN(S(C)(=O)=O)CC3)nc21 (stereo not given) + C=CC(=O)N1CCN(c2nc(OCC3CCCN3C)nc3c(F)c(-c4nc(N)cc(C)c4C(F)(F)F)c(Cl)cc23)C(C)C1', 'K12877-001-R-J1-PDC complex spheroid viability', 'pIC50', 5.79),
  ('CCc1c2c(nc3ccc(O)cc13)-c1cc3c(c(=O)n1C2)COC(=O)[C@]3(O)CC + C#Cc1c(F)ccc2cc(O)cc(-c3ncc4c(N5CC6CCC(C5)N6)nc(OCC56CCCN5CC(F)C6)nc4c3F)c12', 'K12877-001-R-J1-PDC complex spheroid viability', 'pIC50', 8.32);

[1] CC1(O)CCCC1n1c(=O)c(C(F)F)cc2cnc(NC3CCN(S(C)(=O)=O)CC3)nc21 (stereo not given) + C#Cc1c(F)ccc2cc(O)cc(-c3ncc4c(N5CC6CCC(C5)N6)nc(OCC56CCCN5CC(F)C6)nc4c3F)c12
[2] CC(C)NCC(C(=O)N1CCN(c2ncnc3c2C(C)CC3O)CC1)c1ccc(Cl)cc1 (stereo not given) + C=CC(=O)N1CCN(c2nc(OCC3CCCN3C)nc3c(F)c(-c4nc(N)cc(C)c4C(F)(F)F)c(Cl)cc23)C(C)C1
[3] CCN1CCN(Cc2ccc(Nc3ncc(F)c(-c4cc(F)c5nc(C)n(C(C)C)c5c4)n3)nc2)CC1 + C=CC(=O)N1CCN(c2nc(OCC3CCCN3C)nc3c(F)c(-c4nc(N)cc(C)c4C(F)(F)F)c(Cl)cc23)C(C)C1
[4] Nc1ccn(C2OC(CO)C(O)C2(F)F)c(=O)n1 (stereo not given) + C=CC(=O)N1CCN(c2nc(OCC3CCCN3C)nc3c(F)c(-c4nc(N)cc(C)c4C(F)(F)F)c(Cl)cc23)C(C)C1
[5] CC1(C)CCC(Nc2ncc(C(F)(F)F)c(-c3c[nH]c4c(P(C)(C)=O)c(C#N)ccc34)n2)CN1 (stereo not given) + C=CC(=O)N1CCN(c2nc(OCC3CCCN3C)nc3c(F)c(-c4nc(N)cc(C)c4C(F)(F)F)c(Cl)cc23)C(C)C1
Please list these compounds in decreasing order of pIC50. In plain terms: list the labels in the order you were asked to.
4, 5, 3, 2, 1
(4: 7.79, 5: 7.33, 3: 6.16, 2: 5.85, 1: 5.48)

---

system: K12877-001-R-J1-PDC complex spheroid viability; experiment: Anticancer human tumor K12877-001-R-J1-PDC cell line growth inhibition [RAS]; details: curve of first compound; second compound 0.0949 µM;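 also: spheroids exposed to agents for one week before readout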
Readout label: IC50 (nM)

INSERT INTO assay_data (compound, units_text, numeric_value) VALUES
  ('CCN1CCN(Cc2ccc(Nc3ncc(F)c(-c4cc(F)c5nc(C)n(C(C)C)c5c4)n3)nc2)CC1 + CCn1c(-c2cccnc2C(C)OC)c2c3cc(ccc31)N1CCOC(CC(NC(=O)C(C(C)C)N(C)C(=O)C3(F)CCN(C(=O)C#CC(C)(C)N(C)C)CC3)C(=O)N3CCCC(N3)C(=O)OCC(C)(C)C2)C1', 'nM', 132);

[P] CCc1c2c(nc3ccc(O)cc13)-c1cc3c(c(=O)n1C2)COC(=O)[C@]3(O)CC + CCn1c(-c2cccnc2C(C)OC)c2c3cc(ccc31)N1CCOC(CC(NC(=O)C(C(C)C)N(C)C(=O)C3(F)CCN(C(=O)C#CC(C)(C)N(C)C)CC3)C(=O)N3CCCC(N3)C(=O)OCC(C)(C)C2)C1
[Q] O=C(c1ccc(F)c(F)c1Nc1ccc(I)cc1F)N1CC(O)([C@@H]2CCCCN2)C1 + CCn1c(-c2cccnc2C(C)OC)c2c3cc(ccc31)N1CCOC(CC(NC(=O)C(C(C)C)N(C)C(=O)C3(F)CCN(C(=O)C#CC(C)(C)N(C)C)CC3)C(=O)N3CCCC(N3)C(=O)OCC(C)(C)C2)C1
[R] CC(C)n1nc(-c2ccc3oc(N)nc3c2)c2c(N)ncnc21 + CCn1c(-c2cc(N3CCN(C)CC3)cnc2C(C)OC)c2c3cc(ccc31)-c1csc(n1)CC(NC(=O)C1CC1C)C(=O)N1CCCC(N1)C(=O)OCC(C)(C)C2
Form: Sort by [IC50] Order [ ascending ] Answer with the labels in sequence, matching the requested order.
P, R, Q

---

tested on: K12877-001-R-J1-PDC complex spheroid viability; test: Anticancer human tumor K12877-001-R-J1-PDC cell line growth inhibition [RAS]; settings: second compound 0.000949 µM; first compound 3.16 µM; stronger effect = lower value;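 also: spheroids exposed to agents for one week before readout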;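 as to viability, T/C: tumour cells co-cultured with HUVEC and mesenchymal stem cells in spheroids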
Readout label: viability, T/C (%)
Quick reminder: number only, in %, skip the unit.

The cases that follow already have their viability, T/C on record.
INSERT INTO measurements (molecule, tested_system, units_text, numeric_value) VALUES
  ('CCC(CC)c1cc(NC2CCC(N)C2)n2nccc2n1 (centres undefined) + CCn1c(-c2cccnc2C(C)OC)c2c3cc(ccc31)N1CCOC(CC(NC(=O)C(C(C)C)N(C)C(=O)C3(F)CCN(C(=O)C#CC(C)(C)N(C)C)CC3)C(=O)N3CCCC(N3)C(=O)OCC(C)(C)C2)C1', 'K12877-001-R-J1-PDC complex spheroid viability', '%', 1.95),
  ('CCC(CC)c1cc(NC2CCC(N)C2)n2nccc2n1 (centres undefined) + CCn1c(-c2cc(N3CCN(C)CC3)cnc2C(C)OC)c2c3cc(ccc31)-c1csc(n1)CC(NC(=O)C1CC1C)C(=O)N1CCCC(N1)C(=O)OCC(C)(C)C2', 'K12877-001-R-J1-PDC complex spheroid viability', '%', 1.77),
  ('C[C@@H](NC(=O)c1ncnc(N)c1Cl)c1ncc(C(=O)Nc2cc(C(F)(F)F)c(Cl)cn2)s1 + CCn1c(-c2cc(N3CCN(C)CC3)cnc2C(C)OC)c2c3cc(ccc31)-c1csc(n1)CC(NC(=O)C1CC1C)C(=O)N1CCCC(N1)C(=O)OCC(C)(C)C2', 'K12877-001-R-J1-PDC complex spheroid viability', '%', 89.9);

Note viability, T/C for the molecule shown: CC(=O)OC12COC1CC(O)C1(C)C(=O)C(O)C3=C(C)C(OC(=O)C(O)C(NC(=O)OC(C)(C)C)c4ccccc4)CC(O)(C(OC(=O)c4ccccc4)C21)C3(C)C (centres undefined) + CCn1c(-c2cccnc2C(C)OC)c2c3cc(ccc31)N1CCOC(CC(NC(=O)C(C(C)C)N(C)C(=O)C3(F)CCN(C(=O)C#CC(C)(C)N(C)C)CC3)C(=O)N3CCCC(N3)C(=O)OCC(C)(C)C2)C1
3.12

---

system: K12877-001-R-J1-PDC complex spheroid viability; experiment: Anticancer human tumor K12877-001-R-J1-PDC cell line growth inhibition [RAS]; conditions: curve of first compound; second compound 0.00949 µM;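 also: spheroids exposed to agents for one week before readout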
pIC50: −log10 of the molar value.
Readout label: pIC50

INSERT INTO results (compound, readout_label, numeric_value) VALUES
  ('CC(Nc1ccc2c(c1)OCCn1cc(N3C(=O)OCC3C(F)F)nc1-2)C(N)=O (centres undefined) + CCn1c(-c2cccnc2C(C)OC)c2c3cc(ccc31)N1CCOC(CC(NC(=O)C(C(C)C)N(C)C(=O)C3(F)CCN(C(=O)C#CC(C)(C)N(C)C)CC3)C(=O)N3CCCC(N3)C(=O)OCC(C)(C)C2)C1', 'pIC50', 6.51);

[1] CC(C)n1nc(-c2ccc3oc(N)nc3c2)c2c(N)ncnc21 + CCn1c(-c2cc(N3CCN(C)CC3)cnc2C(C)OC)c2c3cc(ccc31)-c1csc(n1)CC(NC(=O)C1CC1C)C(=O)N1CCCC(N1)C(=O)OCC(C)(C)C2
[2] CC(Nc1ccc2c(c1)OCCn1cc(N3C(=O)OCC3C(F)F)nc1-2)C(N)=O (centres undefined) + CCn1c(-c2cc(N3CCN(C)CC3)cnc2C(C)OC)c2c3cc(ccc31)-c1csc(n1)CC(NC(=O)C1CC1C)C(=O)N1CCCC(N1)C(=O)OCC(C)(C)C2
Two entries are listed, 1 and 2 . Which one carries the higher pIC50? Which one? Tell me its label.
1

---

tested on: K12877-001-R-J1-PDC complex spheroid viability; assay: Anticancer human tumor K12877-001-R-J1-PDC cell line growth inhibition [RAS]; settings: second compound 0.0949 µM; first compound 0.01 µM; stronger effect = lower value;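 also: spheroids exposed to agents for one week before readout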;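 as to viability, T/C: tumour cells co-cultured with HUVEC and mesenchymal stem cells in spheroids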
Readout label: viability, T/C (%)
Please give a number only; it is taken to be in %.

INSERT INTO results (molecule, tested_system, readout_label, numeric_value) VALUES
  ('CCN1CCN(Cc2ccc(Nc3ncc(F)c(-c4cc(F)c5nc(C)n(C(C)C)c5c4)n3)nc2)CC1 + CCn1c(-c2cccnc2C(C)OC)c2c3cc(ccc31)N1CCOC(CC(NC(=O)C(C(C)C)N(C)C(=O)C3(F)CCN(C(=O)C#CC(C)(C)N(C)C)CC3)C(=O)N3CCCC(N3)C(=O)OCC(C)(C)C2)C1', 'K12877-001-R-J1-PDC complex spheroid viability', 'viability, T/C', 65.5);

Name the recorded viability, T/C of the molecule listed here: CC(C)n1nc(-c2ccc3oc(N)nc3c2)c2c(N)ncnc21 + CCn1c(-c2cccnc2C(C)OC)c2c3cc(ccc31)N1CCOC(CC(NC(=O)C(C(C)C)N(C)C(=O)C3(F)CCN(C(=O)C#CC(C)(C)N(C)C)CC3)C(=O)N3CCCC(N3)C(=O)OCC(C)(C)C2)C1
37.8

Fill in reported viability, T/C for this entry: O=C(c1ccc(F)c(F)c1Nc1ccc(I)cc1F)N1CC(O)([C@@H]2CCCCN2)C1 + CCn1c(-c2cccnc2C(C)OC)c2c3cc(ccc31)N1CCOC(CC(NC(=O)C(C(C)C)N(C)C(=O)C3(F)CCN(C(=O)C#CC(C)(C)N(C)C)CC3)C(=O)N3CCCC(N3)C(=O)OCC(C)(C)C2)C1
64.5
